meta.source: ChEMBL document CHEMBL1124444

Tested on: Cavia porcellus
Test: Compound (50 mg/kg, intraperitoneally) was tested in spontaneously breathing, conscious guinea pigs challenged with aerosolized LTD4 (60-min pretreatment)
Type: functional
Measured Protection, listed per entry for reference.

>  <smiles_text>
CCCc1c(OCc2cccc(NC(=O)c3ccccc3C(=O)O)c2)ccc(C(C)=O)c1O

>  <Protection / %>
9

$$$$
>  <smiles_text>
COc1cc(C(=O)O)ccc1COc1ccc(C(C)=O)c(O)c1C

>  <Protection / %>
17

$$$$
>  <smiles_text>
CCCc1c(OCc2ccc(C(=O)O)cc2OC)ccc(C(=O)OC)c1O

>  <Protection / %>
29

$$$$
>  <smiles_text>
CCCc1c(OCc2ccc(C(=O)O)cc2F)ccc(C(C)=O)c1O

>  <Protection / %>
0

$$$$
>  <smiles_text>
CCCc1c(OCc2ccc(C(=O)O)c(Br)c2)ccc(C(C)=O)c1O

>  <Protection / %>
69

$$$$
>  <smiles_text>
CCCc1c(OCc2ccc(C(=O)O)cc2OC)ccc(C(C)=O)c1O

>  <Protection / %>
19

$$$$
>  <smiles_text>
CCCc1c(OCCCCc2nnn[nH]2)ccc(C(C)=O)c1O

>  <Protection / %>
49

$$$$
>  <smiles_text>
CCCc1c(OCc2ccc(C(=O)O)cc2OC)ccc(C(=O)NC)c1O

>  <Protection / %>
33

$$$$
>  <smiles_text>
C=C(C)Cc1c(OCc2ccc(C(=O)O)cc2OC)ccc(C(C)=O)c1O

>  <Protection / %>
30

$$$$
>  <smiles_text>
CCCc1c(OCc2ccc(/C=C/C(=O)O)cc2)ccc(C(C)=O)c1O

>  <Protection / %>
34

$$$$
